Biological target: His6‐FraB (Salmonella FraB deglycase) (Salmonella enterica subsp. enterica serovar Typhimurium)
Sequence (Q8ZLD0 entry or part of it): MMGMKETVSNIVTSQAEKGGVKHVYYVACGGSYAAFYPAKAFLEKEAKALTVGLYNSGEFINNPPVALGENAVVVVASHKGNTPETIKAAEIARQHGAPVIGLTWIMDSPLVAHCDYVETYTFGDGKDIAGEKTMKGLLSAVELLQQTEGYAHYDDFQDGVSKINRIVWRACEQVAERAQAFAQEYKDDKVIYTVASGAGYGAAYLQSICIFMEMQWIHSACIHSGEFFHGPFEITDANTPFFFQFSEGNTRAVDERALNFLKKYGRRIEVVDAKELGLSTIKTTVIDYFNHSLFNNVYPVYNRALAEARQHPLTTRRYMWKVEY
Experiment: FraB-G6PD coupled assay, Michaelis–Menten analysis for K I and mode of inhibition
Format: biochemical
Settings: Trial 1; 6-P-F-Asp 1000 µM, S/Km 23.80952; unit from Fig. S11 axis; read-out: IC50 (IC50 versus [S]/Km plots)
// assign TRUE if IC50 falls strictly below 20 µM, else FALSE (ties count as FALSE)

- Cc1cccc(Cl)c1-n1sc(=O)n(CC2CC2)c1=O: TRUE
- O=c1[nH][nH]c(=S)n1Cc1ccccc1: TRUE
- c1ccc(-c2nnc3sc(C4COc5ccccc5O4)nn23)nc1 (centres unmarked): FALSE
- CC(C)Cc1cc(-c2nn3c(-c4ccccc4Cl)nnc3s2)n[nH]1: FALSE
- O=c1sn(-c2ccccc2C(F)(F)F)c(=O)n1CC1CC1: TRUE
